Test system: Lolium perenne (LOLPE)
Test: Glasshouse assay for herbicidal activity (pre- and post-emergence), percentage phytotoxicity
Format: in vivo
Details: Lolium perenne, pre-emergence, 480 h, 250 g/ha; pre-emergence; 20 DAA; visual assessment (100%=total damage, 0%=no damage); read-out: Pre-emergence herbicidal activity (percentage phytotoxicity) LOLPE PRE
readout: pest or weed control at 250 g/ha (%)
// units = %; emit number, no label

A selection of reference data follows.
>>> meas_value("Cc1cc(C)c(C2C(=O)CC(CC(=O)NC3CC3C(F)(F)F)C2=O)c(C)c1 (centres unmarked)")
80
>>> meas_value("Cc1cc(-c2ncc(F)cc2C#N)cc(C)c1C1C(=O)CC(CC(=O)NC(C)(C)C)C1=O (centres unmarked)")
70
>>> meas_value("Cc1cc(C)c(C2CC(=O)C(CC(=O)NC(C)CC(C)C)C2=O)c(C)c1 (centres unmarked)")
90
>>> meas_value("Cc1cc(-c2ncc(F)cn2)cc(C)c1C1C(=O)CC(CC(=O)NC2CCCC2)C1=O (centres unmarked)")
90
>>> meas_value("Cc1cc(C)c(C2C(=O)CC(CC(=O)NC(C)C(F)(F)F)C2=O)c(C)c1 (centres unmarked)")
80
>>> meas_value("Cc1cc(C)c(C2C(=O)CC(CC(=O)NCC3CC3C(F)F)C2=O)c(C)c1 (centres unmarked)")
80
>>> meas_value("Cc1cc(C)c(C2C(=O)CC(CC(=O)NC(C)C3CC3)C2=O)c(C)c1 (centres unmarked)")
90
>>> meas_value("Cc1cc(C)c(C2C(=O)CC(CC(=O)NCc3ccc(Cl)cc3)C2=O)c(C)c1 (centres unmarked)")
90
>>> meas_value("C#CCN(C)C(=O)CC1CC(=O)C(c2c(C)cc(C)cc2C)C1=O (centres unmarked)")
100
>>> meas_value("Cc1cc(-c2ncc(Cl)cn2)cc(C)c1C1C(=O)C[C@@H](CC(=O)NC(C)(C)C)C1=O (some centres unmarked)")
100

Let me check: COc1cccc(CNC(=O)CC2CC(=O)C(c3c(C)cc(Br)cc3C)C2=O)c1 (centres unmarked) , system Lolium perenne (LOLPE), measured pest or weed control at 250 g/ha is 80

Observed pest or weed control at 250 g/ha on Lolium perenne (LOLPE), entry Cc1cc(C)c(C2C(=O)CC(CC(=O)NC3(C)CCC3)C2=O)c(C)c1 (centres unmarked) , equals 90

The compound Cc1cc(C)c(C2C(=O)CC(CC(N)=O)C2=O)c(C)c1 (centres unmarked) , tested on Lolium perenne (LOLPE), showed pest or weed control at 250 g/ha of 100

Item Cc1cc(C)c(C2C(=O)CC(CC(=O)NCc3cccc(Br)c3)C2=O)c(C)c1 (centres unmarked) ; assay system Lolium perenne (LOLPE); pest or weed control at 250 g/ha reported as 100

Tested on Lolium perenne (LOLPE): CCCNC(=O)CC1CC(=O)C(c2c(C)cc(Br)cc2C)C1=O (centres unmarked) . Observed pest or weed control at 250 g/ha: 90

Sample Cc1cc(-c2ncc(Cl)cc2F)cc(C)c1C1C(=O)CC(CC(=O)NC/C=C/Cl)C1=O (centres unmarked) , system: Lolium perenne (LOLPE). Its pest or weed control at 250 g/ha is 100

The measured pest or weed control at 250 g/ha that CC#CC(C)(C)NC(=O)CC1CC(=O)C(c2c(C)cc(C)cc2C)C1=O (centres unmarked) showed for Lolium perenne (LOLPE) is 80

---

Tested on: Avena fatua (AVEFA)
Assay: Glasshouse assay for herbicidal activity (pre- and post-emergence), percentage phytotoxicity
Type: in vivo
Conditions: Avena fatua, pre-emergence, 480 h, Rate 250 g/ha; pre-emergence; assessed visually 20 DAA; 100%=total damage, 0%=no damage; read-out: Pre-emergence herbicidal activity (percentage phytotoxicity) AVEFA PRE
Protocol: Test—Glasshouse Assay for Herbicidal Activity Seeds of a variety of monocotyledonous and dicotyledonous test plants are sown in standard soil in pots. The plants are cultivated for one day (for pre-emergence (PRE)) or for about 12 days (for post-emergence (POST)) under controlled conditions in a glasshouse (warm climate species at 24/18° C., cool climate species at 20/16° C., both at day/night; 16 hours light; 65% humidity). […]
Use 50% as the dividing line for pest or weed control at 250 g/ha, with the line itself on the Condition met side and lower values as Condition not met.

Example entries and their recorded answers appear below.
>>> cat("Cc1cc(-c2ncc(F)cn2)cc(C)c1C1C(=O)CC(CC(=O)NCc2cccc(Cl)c2)C1=O (centres unmarked)")
"Condition met"
>>> cat("Cc1cc(-c2ccc(F)cc2)cc(C)c1C1C(=O)CC(CC(=O)NC(C)C)C1=O (centres unmarked)")
"Condition met"
>>> cat("Cc1cc(-c2cnc(Cl)cn2)cc(C)c1C1C(=O)CC(CC(=O)NCc2cccc(C(F)(F)F)c2)C1=O (centres unmarked)")
"Condition met"
>>> cat("Cc1cc(-c2ncc(Cl)cn2)cc(C)c1C1C(=O)CC(CC(=O)NC(C)(C)C)C1=O (centres unmarked)")
"Condition met"
>>> cat("Cc1cc(C)c(C2C(=O)CC(CC(=O)NC3(c4ccccn4)CC3)C2=O)c(C)c1 (centres unmarked)")
"Condition not met"
>>> cat("CC#Cc1cc(C)c(C2C(=O)CC(CC(=O)NCC(C)C)C2=O)c(C)c1 (centres unmarked)")
"Condition met"
>>> cat("Cc1cc(-c2ncc(F)cn2)cc(C)c1C1C(=O)CC(CC(=O)NCc2ncccc2Cl)C1=O (centres unmarked)")
"Condition met"
>>> cat("Cc1cc(C)c(C2C(=O)CC(CC(=O)NCc3ccc(C(F)(F)F)nc3)C2=O)c(C)c1 (centres unmarked)")
"Condition not met"
>>> cat("Cc1cc(C)c(C2C(=O)CC(C(C)C(=O)NC(C)(C)C)C2=O)c(C)c1 (centres unmarked)")
"Condition not met"
>>> cat("Cc1cc(-c2ncc(Cl)cc2F)cc(C)c1C1C(=O)CC(CC(=O)NCc2cccc([N+](=O)[O-])c2)C1=O (centres unmarked)")
"Condition not met"

Query block: Is pest or weed control at 250 g/ha at least 50%? Consider Cc1cc(-n2cc(Cl)cn2)cc(C)c1C1C(=O)CC(CC(=O)NC(C)C)C1=O (centres unmarked)
Result block: Condition met

Query block: Hello, I need to know if Cc1cc(-c2ccc(Cl)nn2)cc(C)c1C1C(=O)CC(CC(=O)NCc2ncccc2Cl)C1=O (centres unmarked) has measured pest or weed control at 250 g/ha not below 50%. Thanks!
Result block: Condition met

Query block: Evaluate CC#Cc1cc(C)c(C2C(=O)CC(CC(=O)N(C)CCC)C2=O)c(C)c1 (centres unmarked) : pest or weed control at 250 g/ha at minimum 50%?
Result block: Condition met

Query block: Evaluate Cc1cc(C)c(C2C(=O)CC(CC(=O)N3CCCCC3)C2=O)c(C)c1 (centres unmarked) : pest or weed control at 250 g/ha at minimum 50%?
Result block: Condition not met

---

Test system: Lolium perenne (LOLPE)
Assay: Glasshouse assay for herbicidal activity (pre- and post-emergence), percentage phytotoxicity
Assay type: in vivo
Conditions: Lolium perenne, post-emergence, 360 h, POST-emergence, rate 250 g/ha, visual score 15 DAA (100%=total damage, 0%=no damage); read-out: Post-emergence herbicidal activity (percentage phytotoxicity) LOLPE POST
readout: pest or weed control at 250 g/ha (%)
Numbers only; they are read as %.

>>> meas_value("Cc1cc(-c2ccc(Br)cn2)cc(C)c1C1C(=O)CC(CC(=O)NC(C)C)C1=O (centres unmarked)")
100
>>> meas_value("C/C=C/CNC(=O)CC1CC(=O)C(c2c(C)cc(Br)cc2C)C1=O (centres unmarked)")
80
>>> meas_value("Cc1cc(-c2ncc(F)cn2)cc(C)c1C1C(=O)CC(CC(=O)NC/C=C/Cl)C1=O (centres unmarked)")
100

pest or weed control at 250 g/ha reading for C=CCNC(=O)CC1CC(=O)C(c2c(C)cc(/C=C/C)cc2C)C1=O (centres unmarked) : 100

Lab note: measured pest or weed control at 250 g/ha of COCC(C)(C)NC(=O)CC1CC(=O)C(c2c(C)cc(-c3ncc(F)cc3F)cc2C)C1=O (centres unmarked) was 100

---

Test system: Lolium perenne (LOLPE)
Experiment: Glasshouse assay for herbicidal activity (pre- and post-emergence), percentage phytotoxicity
Assay type: in vivo
Details: Lolium perenne, pre-emergence, 480 h, PRE-emergence, rate 250 g/ha, visual score 20 DAA (100%=total damage, 0%=no damage); read-out: Pre-emergence herbicidal activity (percentage phytotoxicity) LOLPE PRE
pest or weed control at 250 g/ha overview
The reply should contain only the number, in %.

Here's what some known entries look like.
>>> meas_value("Cc1cc(-c2ccc(Br)cn2)cc(C)c1C1C(=O)CC(CC(=O)NC(C)C)C1=O (stereo not shown) [Compound B296]")
90
>>> meas_value("Cc1cc(-n2cc(Cl)cn2)cc(C)c1C1C(=O)CC(CC(=O)NC/C=C/Cl)C1=O (stereo not shown) [Compound B308]")
80
>>> meas_value("CCNC(=O)CC1CC(=O)C(c2c(C)cc(-c3ncc(Cl)cn3)cc2C)C1=O (stereo not shown) [Compound B305]")
100

Now for the molecule whose pest or weed control at 250 g/ha we want.
The reported pest or weed control at 250 g/ha of the molecule C=C(C)CNC(=O)CC1CC(=O)C(c2c(C)cc(-n3cc(Cl)cn3)cc2C)C1=O (stereo not shown) [Compound B311] was 90
